# IC50 per record follows
Molecular target: T1, Recombinant human PDGF-BB (human, UniProt P01127 82-190)
T1 construct: For SPR it was chemically biotinylated on primary amines and captured on neutravidin; also called PDGF-BB (human); Reliatech 200-055
T1 sequence (P01127 82-190 limits assumed): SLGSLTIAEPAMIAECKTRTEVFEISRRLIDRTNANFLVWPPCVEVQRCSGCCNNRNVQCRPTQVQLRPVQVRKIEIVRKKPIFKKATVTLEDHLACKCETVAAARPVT
Experiment: receptor competition ELISA: DARPin preincubated with PDGF-BB, free PDGF-BB captured on coated PDGFRbeta/Fc; mean IC50
Procedure: The potency of PEGylated anti-PDGF-BB DARPins to inhibit the binding of human PDGF-BB to its receptor PDGFRbeta was determined in a in a receptor competition ELISA (based on PDGF-BB Quantikine, R&D Systems). […] The color development was stopped and the intensity of the color was measured at 405 nm. […] IC₅₀ values were calculated from such titration curves obtained as described above using Graph Pad Prism software and standard procedures known to the person skilled in the art.
Numeric only. Scale: nM

Study these solved cases before continuing.
DARPin #29 (designed binder) MRGSHHHHHHGSDLGKKLLEAARAGQDDEVRILLKAGADVNAKDEEGTTPLHYAAVWGHLEIVEVLLKAGADVNAQDIYGATPADLAALVGHEDIAEVLQKLN = 0.015
DARPin #53 (designed binder) MRGSHHHHHHGSDLDKKLLEAARAGQDDEVRILMANGADVNAKDLNGQTPLHLAADIGHLEIVEVLLKAGADVNAKDYAGSTPLRLAAWAGHLEIVEVLLKAGADVNAKDYFGYTPLHLAAYFGHLEIVEVLLKAGADVNAQDKFGKTPADIAADNGHEDIAEVLQKLN = 0.036
DARPin #24 (designed binder) MRGSHHHHHHGSDLGKKLLEAARAGQDDEVRELLKAGADVNAKDEEGTTPLHYAAVWGHLEIVEVLLKAGADVNAQDIYGATPADLAALVGHEDIAEVLQKLN = 0.015

Turning to the following binder.
Request: Recall and state the measured IC50 for DARPin #31 (designed binder) MRGSHHHHHHGSDLGKKLLEAARAGQDDEVRELLKAGADVNAKDEEGTTPLHYAAVFGHLEIVEVLLKAGADVNAQDIYGATPADLAALVGHEDIAEVLQKLN .
Result: 0.48
